system: 565726-208-R1-J5-PDC complex spheroids, growth inhibition; experiment: Anticancer human tumor 565726-208-R1-J5-PDC patient-derived pancreatic adenocarcinoma cell line growth inhibition [RAS]; conditions: second compound 3.16 µM; first compound 1 µM; stronger effect = lower value;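 also: spheroids exposed to compounds for seven days before readout; 100% = DMSO vehicle control viability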
viability, T/C strictly less than 50% = 1. Otherwise 0.

1) O=C(c1ccc(F)c(F)c1Nc1ccc(I)cc1F)N1CC(O)([C@@H]2CCCCN2)C1 + C#Cc1c(F)ccc2cc(O)cc(-c3ncc4c(N5CC6CCC(C5)N6)nc(OCC56CCCN5CC(F)C6)nc4c3F)c12    1
2) NC1c2ccccc2OC12CCN(c1cnc3c(N4CCCc5ncccc54)n[nH]c3n1)CC2 (stereo not drawn) + C#Cc1c(F)ccc2cc(O)cc(-c3ncc4c(N5CC6CCC(C5)N6)nc(OCC56CCCN5CC(F)C6)nc4c3F)c12    1
3) Cc1nc(N2CCC3(CC2)COC(C)C3N)c(CO)nc1Sc1ccnc(N)c1Cl (stereo not drawn) + C#Cc1c(F)ccc2cc(O)cc(-c3ncc4c(N5CC6CCC(C5)N6)nc(OCC56CCCN5CC(F)C6)nc4c3F)c12    1
4) C[C@@H](NC(=O)c1ncnc(N)c1Cl)c1ncc(C(=O)Nc2cc(C(F)(F)F)c(Cl)cn2)s1 + C#Cc1c(F)ccc2cc(O)cc(-c3ncc4c(N5CC6CCC(C5)N6)nc(OCC56CCCN5CC(F)C6)nc4c3F)c12    0
5) CCN1CCN(Cc2ccc(Nc3ncc(F)c(-c4cc(F)c5nc(C)n(C(C)C)c5c4)n3)nc2)CC1 + C#Cc1c(F)ccc2cc(O)cc(-c3ncc4c(N5CC6CCC(C5)N6)nc(OCC56CCCN5CC(F)C6)nc4c3F)c12    1
6) CC(Nc1ccc2c(c1)OCCn1cc(N3C(=O)OCC3C(F)F)nc1-2)C(N)=O (stereo not drawn) + C#Cc1c(F)ccc2cc(O)cc(-c3ncc4c(N5CC6CCC(C5)N6)nc(OCC56CCCN5CC(F)C6)nc4c3F)c12    1
7) Nc1ccn(C2OC(CO)C(O)C2(F)F)c(=O)n1 (stereo not drawn) + C#Cc1c(F)ccc2cc(O)cc(-c3ncc4c(N5CC6CCC(C5)N6)nc(OCC56CCCN5CC(F)C6)nc4c3F)c12    1
8) C=CC(=O)N1CCN(c2nc(OCC3CCCN3C)nc3c(F)c(-c4nc(N)cc(C)c4C(F)(F)F)c(Cl)cc23)C(C)C1 (stereo not drawn) + C#Cc1c(F)ccc2cc(O)cc(-c3ncc4c(N5CC6CCC(C5)N6)nc(OCC56CCCN5CC(F)C6)nc4c3F)c12    0
9) CCC(CC)c1cc(NC2CCC(N)C2)n2nccc2n1 (stereo not drawn) + C#Cc1c(F)ccc2cc(O)cc(-c3ncc4c(N5CC6CCC(C5)N6)nc(OCC56CCCN5CC(F)C6)nc4c3F)c12    1
10) CC(=O)OC12COC1CC(O)C1(C)C(=O)C(O)C3=C(C)C(OC(=O)C(O)C(NC(=O)OC(C)(C)C)c4ccccc4)CC(O)(C(OC(=O)c4ccccc4)C21)C3(C)C (stereo not drawn) + C#Cc1c(F)ccc2cc(O)cc(-c3ncc4c(N5CC6CCC(C5)N6)nc(OCC56CCCN5CC(F)C6)nc4c3F)c12    1
11) CC(C)NCC(C(=O)N1CCN(c2ncnc3c2C(C)CC3O)CC1)c1ccc(Cl)cc1 (stereo not drawn) + C#Cc1c(F)ccc2cc(O)cc(-c3ncc4c(N5CC6CCC(C5)N6)nc(OCC56CCCN5CC(F)C6)nc4c3F)c12    1
12) C=CC(=O)Nc1cc(Nc2nccc(-c3cn(C)c4ccccc34)n2)c(OC)cc1N(C)CCN(C)C + C#Cc1c(F)ccc2cc(O)cc(-c3ncc4c(N5CC6CCC(C5)N6)nc(OCC56CCCN5CC(F)C6)nc4c3F)c12    0

Where these numbers come from: PubChem BioAssay AID2060899
